# Lookup of reported Total plasma testosterone keyed by entry
# system-name: LH-RH receptors (Rattus norvegicus)
# assay-overview: Stimulation of testosterone secretion in adult male rats after subcutaneous injection (agonist activity in vivo)
# Design: exert an agonist activity upon the LH-RH receptors in vivo; from tissue; host or cells: whole animal, adult male Sprague-Dawley rats; species or system Sprague-Dawley rats
# cond: Table 2; 10 ng/kg subcutaneous in PBS, blood two hours later, male Sprague-Dawley rats; vehicle 2.7 ± 0.3
Square brackets hold non-standard residues; d marks the D form. Peptide text beside a SMILES is read from it. tBuAla = CC(C)(C)C[C@H](N)C(=O)O; pGlu = O=C1CC[C@@H](C(=O)O)N1

compound	scale-unit	Total plasma testosterone
CCNC(=O)[C@@H]1CCCN1C(=O)[C@H](CCCNC(=N)N)NC(=O)[C@H](CC(C)C)NC(=O)[C@@H](C)NC(=O)[C@H](Cc1ccc(O)cc1)NC(=O)[C@H](CO)NC(=O)[C@H](Cc1c[nH]c2ccccc12)NC(=O)[C@H](Cc1c[nH]cn1)NC(=O)[C@@H]1CCC(=O)N1 [[D-Ala^6, Pro^9NEt]-LH-RH, reference compound]	nmol/L	30.6
CCNC(=O)[C@@H]1CCCN1C(=O)[C@H](CCCNC(=N)N)NC(=O)[C@H](CC(C)C)NC(=O)[C@@H](Cc1ccccc1)NC(=O)[C@H](Cc1ccc(O)cc1)NC(=O)[C@H](CO)NC(=O)[C@H](Cc1c[nH]c2ccccc12)NC(=O)[C@H](Cc1c[nH]cn1)NC(=O)[C@@H]1CCC(=O)N1 [[D-Phe^6, Pro^9NEt]-LH-RH, reference compound]	nmol/L	16.7
CC(C)(C)C[C@H](NC(=O)[C@@H](Cc1c[nH]c2ccccc12)NC(=O)[C@H](Cc1ccc(O)cc1)NC(=O)[C@H](CO)NC(=O)[C@H](Cc1c[nH]c2ccccc12)NC(=O)[C@H](Cc1c[nH]cn1)NC(=O)[C@@H]1CCC(=O)N1)C(=O)N[C@@H](CCCNC(=N)N)C(=O)N1CCC[C@H]1C(=O)NCC(N)=O [Example 11] ([pGlu]HWSY[dW][tBuAla]RPG-NH2)	nmol/L	30.8

====

# system-name: LH-RH receptors (Rattus norvegicus)
# Sequence (P30969 1-327): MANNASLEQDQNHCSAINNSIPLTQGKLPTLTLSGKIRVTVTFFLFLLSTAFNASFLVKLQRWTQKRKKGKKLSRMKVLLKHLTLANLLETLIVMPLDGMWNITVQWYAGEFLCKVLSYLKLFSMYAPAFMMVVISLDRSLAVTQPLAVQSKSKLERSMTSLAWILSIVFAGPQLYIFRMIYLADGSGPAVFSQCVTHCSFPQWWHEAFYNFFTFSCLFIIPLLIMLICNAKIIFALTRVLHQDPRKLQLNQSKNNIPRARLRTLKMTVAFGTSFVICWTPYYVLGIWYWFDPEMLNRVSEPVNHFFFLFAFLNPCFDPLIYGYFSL
pKi: −log10 of the molar value. Square brackets hold non-standard residues; d marks the D form. Peptide text beside a SMILES is read from it. dPhe(4-Cl) = N[C@H](Cc1ccc(Cl)cc1)C(=O)O; d2Nal = N[C@H](Cc1ccc2ccccc2c1)C(=O)O; d(hCit) = NC(=O)NCCCC[C@@H](N)C(=O)O; Lys(iPr) = CC(C)NCCCC[C@H](N)C(=O)O; dCit = NC(=O)NCCC[C@@H](N)C(=O)O; tBuAla = CC(C)(C)C[C@H](N)C(=O)O; d3Pal = N[C@H](Cc1cccnc1)C(=O)O

compound	system-name	pKi
CCNC(=O)[C@@H]1CCCN1C(=O)[C@H](CCCNC(=N)N)NC(=O)[C@H](CC(C)C)NC(=O)[C@@H](COC(C)(C)C)NC(=O)[C@H](Cc1ccc(O)cc1)NC(=O)[C@H](CO)NC(=O)[C@H](Cc1c[nH]c2ccccc12)NC(=O)[C@H](Cc1cnc[nH]1)NC(=O)[C@@H]1CCC(=O)N1 [Buserelin, reference compound]	LH-RH receptors (Rattus norvegicus)	9.35
CC(=O)N[C@H](Cc1ccc2ccccc2c1)C(=O)N[C@H](Cc1ccc(Cl)cc1)C(=O)N[C@H](Cc1cccnc1)C(=O)N[C@@H](CO)C(=O)N[C@@H](Cc1ccc(O)cc1)C(=O)N[C@H](CCCNC(N)=O)C(=O)N[C@@H](CC(C)(C)C)C(=O)N[C@@H](CCCCNC(C)C)C(=O)N1CCC[C@H]1C(=O)N[C@H](C)C(N)=O [Example 17] (Ac-[d2Nal][dPhe(4-Cl)][d3Pal]SY[dCit][tBuAla][Lys(iPr)]P[dA]-NH2)	LH-RH receptors (Rattus norvegicus)	9.72
CC(=O)N[C@H](Cc1ccc2ccccc2c1)C(=O)N[C@H](Cc1ccc(Cl)cc1)C(=O)N[C@H](Cc1cccnc1)C(=O)N[C@@H](CO)C(=O)N[C@@H](Cc1ccc(O)cc1)C(=O)N[C@H](CCCCNC(N)=O)C(=O)N[C@@H](CC(C)(C)C)C(=O)N[C@@H](CCCCNC(C)C)C(=O)N1CCC[C@H]1C(=O)N[C@H](C)C(N)=O [Example 18] (Ac-[d2Nal][dPhe(4-Cl)][d3Pal]SY[d(hCit)][tBuAla][Lys(iPr)]P[dA]-NH2)	LH-RH receptors (Rattus norvegicus)	10.07

====

# system-name: LH-RH receptors (Rattus norvegicus, UniProt P30969)
# Sequence (P30969 1-327): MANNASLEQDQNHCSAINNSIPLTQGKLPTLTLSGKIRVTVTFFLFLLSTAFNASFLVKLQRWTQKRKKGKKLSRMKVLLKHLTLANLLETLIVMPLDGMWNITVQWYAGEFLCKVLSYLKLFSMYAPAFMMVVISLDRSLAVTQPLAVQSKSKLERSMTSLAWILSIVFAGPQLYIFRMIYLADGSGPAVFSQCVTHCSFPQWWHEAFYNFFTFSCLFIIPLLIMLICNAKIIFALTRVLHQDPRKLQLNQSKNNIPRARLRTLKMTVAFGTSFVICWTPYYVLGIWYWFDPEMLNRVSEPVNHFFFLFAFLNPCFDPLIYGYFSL
# assay-overview: Stimulation of testosterone secretion in adult male rats after subcutaneous injection (agonist activity in vivo)
# Parameters: exert an agonist activity upon the LH-RH receptors in vivo; from tissue; host or cells: whole animal, adult male Sprague-Dawley rats; species or system Sprague-Dawley rats
# cond: Table 3; 10 ng/kg subcutaneous in PBS, blood two hours later, male Sprague-Dawley rats; vehicle 4.3 ± 1.2
Square brackets hold non-standard residues; d marks the D form. Peptide text beside a SMILES is read from it. 1Nal = N[C@@H](Cc1cccc2ccccc12)C(=O)O; 2Nal = N[C@@H](Cc1ccc2ccccc2c1)C(=O)O; tBuAla = CC(C)(C)C[C@H](N)C(=O)O; d4Pal = N[C@H](Cc1ccncc1)C(=O)O; pGlu = O=C1CC[C@@H](C(=O)O)N1

compound	Total plasma testosterone, nmol/L
CCNC(=O)[C@@H]1CCCN1C(=O)[C@H](CCCNC(=N)N)NC(=O)[C@H](CC(C)(C)C)NC(=O)[C@@H](CC(C)C)NC(=O)[C@H](Cc1ccc(O)cc1)NC(=O)[C@H](CO)NC(=O)[C@H](Cc1cccc2ccccc12)NC(=O)[C@H](Cc1c[nH]cn1)NC(=O)[C@@H]1CCC(=O)N1 [Example 24] ([pGlu]H[1Nal]SY[dL][tBuAla]RP-NHEt)	14.3
CCNC(=O)[C@@H]1CCCN1C(=O)[C@H](CCCNC(=N)N)NC(=O)[C@H](CC(C)(C)C)NC(=O)[C@@H](CC(C)C)NC(=O)[C@H](Cc1ccc(O)cc1)NC(=O)[C@H](CO)NC(=O)[C@H](Cc1ccc2ccccc2c1)NC(=O)[C@H](Cc1c[nH]cn1)NC(=O)[C@@H]1CCC(=O)N1 [Example 25] ([pGlu]H[2Nal]SY[dL][tBuAla]RP-NHEt)	27.3
CC(C)(C)C[C@H](NC(=O)[C@@H](Cc1ccncc1)NC(=O)[C@H](Cc1ccc(O)cc1)NC(=O)[C@H](CO)NC(=O)[C@H](Cc1c[nH]c2ccccc12)NC(=O)[C@H](Cc1c[nH]cn1)NC(=O)[C@@H]1CCC(=O)N1)C(=O)N[C@@H](CCCNC(=N)N)C(=O)N1CCC[C@H]1C(=O)NCC(N)=O [Example 21] ([pGlu]HWSY[d4Pal][tBuAla]RPG-NH2)	32.4

====

Reported Ki by item:
# system-name: UniProt P30969
# Sequence (P30969 1-327): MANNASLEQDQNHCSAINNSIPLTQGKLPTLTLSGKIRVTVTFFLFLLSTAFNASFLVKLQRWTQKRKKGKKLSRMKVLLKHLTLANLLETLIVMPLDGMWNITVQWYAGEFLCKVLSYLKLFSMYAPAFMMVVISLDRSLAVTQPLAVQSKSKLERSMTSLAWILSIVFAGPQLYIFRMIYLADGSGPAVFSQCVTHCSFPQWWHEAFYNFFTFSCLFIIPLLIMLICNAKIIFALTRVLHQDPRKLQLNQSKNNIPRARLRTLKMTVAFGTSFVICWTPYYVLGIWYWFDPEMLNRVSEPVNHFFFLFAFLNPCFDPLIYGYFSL
Square brackets hold non-standard residues; d marks the D form. Peptide text beside a SMILES is read from it. * marks the point of attachment. dPhe(4-Cl) = N[C@H](Cc1ccc(Cl)cc1)C(=O)O; d2Nal = N[C@H](Cc1ccc2ccccc2c1)C(=O)O; d(hCit) = NC(=O)NCCCC[C@@H](N)C(=O)O; Lys(iPr) = CC(C)NCCCC[C@H](N)C(=O)O; dCit = NC(=O)NCCC[C@@H](N)C(=O)O; tBuAla = CC(C)(C)C[C@H](N)C(=O)O; d3Pal = N[C@H](Cc1cccnc1)C(=O)O; pGlu = O=C1CC[C@@H](C(=O)O)N1; Nicotinoyl = O=C(c1cccnc1)*

molecule	Ki (nM)
CC(=O)N[C@H](Cc1ccc2ccccc2c1)C(=O)N[C@H](Cc1ccc(Cl)cc1)C(=O)N[C@H](Cc1cccnc1)C(=O)N[C@@H](CO)C(=O)N[C@@H](CCCCNC(=O)c1cccnc1)C(=O)N[C@H](CCCCNC(=O)c1cccnc1)C(=O)N[C@@H](CC(C)(C)C)C(=O)N[C@@H](CCCCNC(C)C)C(=O)N1CCC[C@H]1C(=O)N[C@H](C)C(N)=O [Example 15] (Ac-[d2Nal][dPhe(4-Cl)][d3Pal]SK(Nicotinoyl)[dK](Nicotinoyl)[tBuAla][Lys(iPr)]P[dA]-NH2)	0.589
CCNC(=O)[C@@H]1CCCN1C(=O)[C@H](CCCNC(=N)N)NC(=O)[C@H](CC(C)(C)C)NC(=O)[C@@H](C)NC(=O)[C@H](Cc1ccc(O)cc1)NC(=O)[C@H](CO)NC(=O)[C@H](Cc1c[nH]c2ccccc12)NC(=O)[C@H](Cc1c[nH]cn1)NC(=O)[C@@H]1CCC(=O)N1 [Example 4]	0.0977
CC(C)(C)C[C@H](NC(=O)[C@@H](Cc1ccccc1)NC(=O)[C@H](Cc1ccc(O)cc1)NC(=O)[C@H](CO)NC(=O)[C@H](Cc1c[nH]c2ccccc12)NC(=O)[C@H](Cc1c[nH]cn1)NC(=O)[C@@H]1CCC(=O)N1)C(=O)N[C@@H](CCCNC(=N)N)C(=O)N1CCC[C@H]1C(=O)NCC(N)=O [Example 9] ([pGlu]HWSY[dF][tBuAla]RPG-NH2)	2.34
CC(C)(C)C[C@H](NC(=O)[C@@H](Cc1ccc2ccccc2c1)NC(=O)[C@H](Cc1ccc(O)cc1)NC(=O)[C@H](CO)NC(=O)[C@H](Cc1c[nH]c2ccccc12)NC(=O)[C@H](Cc1c[nH]cn1)NC(=O)[C@@H]1CCC(=O)N1)C(=O)N[C@@H](CCCNC(=N)N)C(=O)N1CCC[C@H]1C(=O)NCC(N)=O [Example 13] ([pGlu]HWSY[d2Nal][tBuAla]RPG-NH2)	1.07
CC(=O)N[C@H](Cc1ccc2ccccc2c1)C(=O)N[C@H](Cc1ccc(Cl)cc1)C(=O)N[C@H](Cc1cccnc1)C(=O)N[C@@H](CO)C(=O)N[C@@H](Cc1ccc(O)cc1)C(=O)N[C@H](CCCNC(N)=O)C(=O)N[C@@H](CC(C)(C)C)C(=O)N[C@@H](CCCNC(=N)N)C(=O)N1CCC[C@H]1C(=O)N[C@H](C)C(N)=O [Example 16] (Ac-[d2Nal][dPhe(4-Cl)][d3Pal]SY[dCit][tBuAla]RP[dA]-NH2)	0.0676
CC(=O)N[C@H](Cc1ccc2ccccc2c1)C(=O)N[C@H](Cc1ccc(Cl)cc1)C(=O)N[C@H](Cc1cccnc1)C(=O)N[C@@H](CO)C(=O)N[C@@H](CCCCNC(=O)c1cccnc1)C(=O)N[C@H](CCCCNC(=O)c1cccnc1)C(=O)N[C@@H](CC(C)C)C(=O)N[C@@H](CCCCNC(C)C)C(=O)N1CCC[C@H]1C(=O)N[C@H](C)C(N)=O [Antide, reference compound] (Ac-[d2Nal][dPhe(4-Cl)][d3Pal]SK(Nicotinoyl)[dK](Nicotinoyl)L[Lys(iPr)]P[dA]-NH2)	0.692
C[C@@H](NC(=O)[C@H](Cc1ccc(O)cc1)NC(=O)[C@H](CO)NC(=O)[C@H](Cc1c[nH]c2ccccc12)NC(=O)[C@H](Cc1c[nH]cn1)NC(=O)[C@@H]1CCC(=O)N1)C(=O)N[C@@H](CC(C)(C)C)C(=O)N[C@@H](CCCNC(=N)N)C(=O)N1CCC[C@H]1C(=O)NCC(N)=O [Example 3] ([pGlu]HWSY[dA][tBuAla]RPG-NH2)	0.269
CC(=O)N[C@H](Cc1ccc2ccccc2c1)C(=O)N[C@H](Cc1ccc(Cl)cc1)C(=O)N[C@H](Cc1cccnc1)C(=O)N[C@@H](CO)C(=O)N[C@@H](Cc1ccc(O)cc1)C(=O)N[C@H](CCCCNC(N)=O)C(=O)N[C@@H](CC(C)(C)C)C(=O)N[C@@H](CCCNC(=N)N)C(=O)N1CCC[C@H]1C(=O)N[C@H](C)C(N)=O [Example 19] (Ac-[d2Nal][dPhe(4-Cl)][d3Pal]SY[d(hCit)][tBuAla]RP[dA]-NH2)	0.0776
